This collection of values is drawn from patent US9458172B2.

SYSTEM_TESTED: NAMPT (Homo sapiens (Human), UniProt P43490)
Sequence (P43490 whole entry): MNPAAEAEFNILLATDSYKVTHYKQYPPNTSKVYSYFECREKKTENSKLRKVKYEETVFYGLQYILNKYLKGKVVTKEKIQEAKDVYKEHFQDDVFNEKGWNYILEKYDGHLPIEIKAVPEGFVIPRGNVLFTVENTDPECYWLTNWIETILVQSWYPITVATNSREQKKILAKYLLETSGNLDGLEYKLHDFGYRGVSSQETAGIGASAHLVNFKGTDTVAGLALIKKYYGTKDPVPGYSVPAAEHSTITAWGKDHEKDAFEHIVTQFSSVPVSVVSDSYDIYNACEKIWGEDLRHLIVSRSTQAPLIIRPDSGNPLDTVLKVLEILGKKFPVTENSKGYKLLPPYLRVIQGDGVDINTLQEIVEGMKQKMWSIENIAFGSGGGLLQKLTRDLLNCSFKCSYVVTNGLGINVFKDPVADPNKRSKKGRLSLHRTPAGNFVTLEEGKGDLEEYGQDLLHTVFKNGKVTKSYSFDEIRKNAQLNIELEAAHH
ASSAY_METHOD_TEXT: Biochemical Inhibition Assay (NAMPT enzymatic reaction, NMN quantified by mass spectrometry)
EXPERIMENTAL_PARAMETERS: 33 nM recombinant His-tagged NAMPT, 1 μM NAM, 30 min at rt
pIC50: −log10 of the molar value.
Is pIC50 at least 7? Then label 1. If not, label 0.

{"MOLECULE": "CN(C)c1ncc(S(=O)(=O)c2ccc(CNC(=O)c3ccc4nccn4c3)nc2)s1", "ASSIGNED_CATEGORY": "label 1"}
{"MOLECULE": "O=C(NCc1ccc([S+]([O-])c2cc(F)cc(F)c2)cn1)N1Cc2ccncc2C1 (single isomer, unassigned; enantiomer 1) [Example 159]", "ASSIGNED_CATEGORY": "label 0"}
{"MOLECULE": "O=C(NCc1ccc(S(=O)(=O)c2cncc(C(F)(F)F)c2)cn1)N1Cc2ccncc2C1", "ASSIGNED_CATEGORY": "label 1"}
{"MOLECULE": "O=C(NCc1ccc(S(=O)(=O)N2CCC(N3CCCC3)CC2)cn1)c1cnc2[nH]ncc2c1", "ASSIGNED_CATEGORY": "label 0"}
{"MOLECULE": "O=C(NCc1ccc([S+]([O-])c2cc(F)cc(F)c2)cn1)c1cnc2nccn2c1 (racemic)", "ASSIGNED_CATEGORY": "label 1"}
{"MOLECULE": "CN(C)c1ncc(S(=O)(=O)c2ccc(CNC(=O)c3cc4ccncc4o3)nc2)s1", "ASSIGNED_CATEGORY": "label 1"}
{"MOLECULE": "O=C(NCc1ccc(S(=O)(=O)N2CCC(N3CCCC3)CC2)cn1)c1cc2ccncc2o1", "ASSIGNED_CATEGORY": "label 1"}

* * *

SYSTEM_TESTED: NAMPT (Homo sapiens (Human))
ASSAY_METHOD_TEXT: Biochemical Inhibition Assay (NAMPT enzymatic reaction, NMN quantified by mass spectrometry)
EXPERIMENTAL_PARAMETERS: 33 nM recombinant His-tagged NAMPT, 1 μM NAM, 30 min at rt
pIC50: −log10 of the molar value.
Is pIC50 at least 7? Then fulfilled. If not, not fulfilled.

{"COMPOUND": "CN1CCN(c2ccc(S(=O)(=O)c3ccc(CNC(=O)c4cnc5nccn5c4)nc3)cn2)CC1", "SYSTEM_TESTED": "NAMPT (Homo sapiens (Human))", "ASSIGNED_CATEGORY": "fulfilled"}
{"COMPOUND": "O=C(NCc1ccc([S+]([O-])c2cc(F)cc(F)c2)cn1)c1cc2cnccc2[nH]1 (racemic)", "SYSTEM_TESTED": "NAMPT (Homo sapiens (Human))", "ASSIGNED_CATEGORY": "fulfilled"}
{"COMPOUND": "CCN(C)c1ncc(S(=O)(=O)c2ccc(CNC(=O)c3ccc4nccn4c3)nc2)s1", "SYSTEM_TESTED": "NAMPT (Homo sapiens (Human))", "ASSIGNED_CATEGORY": "fulfilled"}
{"COMPOUND": "O=C(NCc1ccc(S(=O)(=O)c2cncc(C(F)(F)F)c2)cn1)c1cnc2[nH]ncc2c1", "SYSTEM_TESTED": "NAMPT (Homo sapiens (Human))", "ASSIGNED_CATEGORY": "not fulfilled"}
{"COMPOUND": "CN1CCN(c2ccc(S(=O)(=O)c3ccc(CNC(=O)c4ccc5nccn5c4)nc3)cn2)CC1", "SYSTEM_TESTED": "NAMPT (Homo sapiens (Human))", "ASSIGNED_CATEGORY": "fulfilled"}
{"COMPOUND": "COc1cc(OC)cc(S(=O)(=O)c2ccc(CNC(=O)c3cc4ccncc4o3)nc2)c1", "SYSTEM_TESTED": "NAMPT (Homo sapiens (Human))", "ASSIGNED_CATEGORY": "fulfilled"}
{"COMPOUND": "O=C(NCc1ccc(S(=O)(=O)c2ccc(C(F)(F)F)nc2)cn1)c1cnc2[nH]ncc2c1", "SYSTEM_TESTED": "NAMPT (Homo sapiens (Human))", "ASSIGNED_CATEGORY": "not fulfilled"}
{"COMPOUND": "O=C(NCc1ccc(S(=O)(=O)c2ccc(N3CCOCC3)cc2)cn1)c1cnc2nccn2c1", "SYSTEM_TESTED": "NAMPT (Homo sapiens (Human))", "ASSIGNED_CATEGORY": "fulfilled"}
{"COMPOUND": "N#Cc1cncc(S(=O)(=O)c2ccc(CNC(=O)c3cc4ccncc4o3)nc2)c1", "SYSTEM_TESTED": "NAMPT (Homo sapiens (Human))", "ASSIGNED_CATEGORY": "not fulfilled"}
{"COMPOUND": "CCS(=O)(=O)c1cccc(S(=O)(=O)c2ccc(CNC(=O)c3cc4ccncc4o3)nc2)c1", "SYSTEM_TESTED": "NAMPT (Homo sapiens (Human))", "ASSIGNED_CATEGORY": "fulfilled"}
{"COMPOUND": "CCCn1cc(S(=O)(=O)c2ccc(CNC(=O)c3cc4ccncc4s3)nc2)cn1", "SYSTEM_TESTED": "NAMPT (Homo sapiens (Human))", "ASSIGNED_CATEGORY": "fulfilled"}
{"COMPOUND": "O=C(NCc1ncc(S(=O)(=O)c2ccccc2)cn1)c1ccc2nccn2c1", "SYSTEM_TESTED": "NAMPT (Homo sapiens (Human))", "ASSIGNED_CATEGORY": "not fulfilled"}
{"COMPOUND": "O=C(NCc1ccc(S(=O)(=O)C2CCN(C3CCOCC3)CC2)cn1)c1ccc2nccn2c1", "SYSTEM_TESTED": "NAMPT (Homo sapiens (Human))", "ASSIGNED_CATEGORY": "not fulfilled"}
{"COMPOUND": "COc1ccc(S(=O)(=O)c2ccc(CNC(=O)c3cc4ccncc4o3)nc2)cc1OC", "SYSTEM_TESTED": "NAMPT (Homo sapiens (Human))", "ASSIGNED_CATEGORY": "fulfilled"}
